Test: Cytotoxicity (CC50) in MT4 cells, mock-infected
Type: cell-based
Conditions: human, mock-infected
Each record here notes measured CC50 at 5 days.
REPORTED ENDPOINT: CC50 at 5 days (µM)

> print(dat)
                                   compound  measured.result
1  O=C(NCc1c(F)cc(F)cc1F)c1cn2c(c(O)c1=O)C(=O)N(C1CC1)[C@H]1OCC[C@H]12 (racemic)             31.1
2  C[C@@H]1OCC[C@H]2[C@@H]1N(C)C(=O)c1c(O)c(=O)c(C(=O)NCc3ccc(F)c(Cl)c3F)cn12             9.66
3  CCN1C(=O)c2c(O)c(=O)c(C(=O)NCc3c(F)cc(F)cc3F)cn2[C@H]2COCC[C@H]21             4.49
4  CN1C(=O)c2c(O)c(=O)c(C(=O)NCc3c(F)cc(F)cc3F)cn2[C@H]2CCCC[C@H]21             11.4
5  CCN1C(=O)c2c(O)c(=O)c(C(=O)NCc3ccc(F)c(Cl)c3F)cn2[C@H]2CCO[C@H]21 [Compound 25b]             26.7
6  C[C@@H]1OCC[C@H]2[C@@H]1N(C)C(=O)c1c(O)c(=O)c(C(=O)NCc3c(F)cc(F)cc3F)cn12             23.9
